Tested on: BT-549 breast
PROCEDURE SUMMARY: NCI-60 one-dose screen, 48 h
MEASUREMENT CONDITIONS: 10 µM unless noted
About 83,000 compounds went through this panel and 20% of them were active in at least one assay; those are over-represented in the sample as a whole. Calls of active or inactive are those of the source. How the source made its calls: active means growth percent below 10; inactive means the rest.
API: response.call in 1 (active), 0 (inactive)

Below are worked cases with known answers.
                                   molecule  category
0  O=C(c1ccc(O)c(C(=O)N2Cc3ccc(OCCC[P+](c4ccccc4)(c4ccccc4)c4ccccc4)cc3C2)c1)N1Cc2cccc(F)c2C1         0
1  O=S(=O)(NC1c2ccccc2C[C@H]1O)c1ccc(Cl)cc1Cl (some centres undefined)         0
2  COc1cc(-c2nnc(SCc3ccc(O)c4ncccc34)n2-c2ccccc2)cc(OC)c1OC         0
3  C=CCn1c(SCC(=O)Nc2ccc(C(=O)/C=C/c3ccc(Br)cc3)cc2)nnc1-c1c[nH]c2ccccc12         0
4  COc1cc2nc(Cl)nc(Nc3cccc(C4=Nc5c(N)nc(N)nc5NC(c5ccc6c(c5)OCO6)C4)c3)c2cc1OC (centres undefined)         0

Please turn your attention to the following entry.
Q. What did the test return for CC(C)(C)c1ccc(C(=O)Nc2sc3c(c2C(N)=O)CC/C(=N\O)C3)cc1 ?
A. 0

----------
System: HCT-15 colon
PROCEDURE SUMMARY: NCI-60 one-dose screen, 48 h
MEASUREMENT CONDITIONS: 10 µM unless noted
The panel holds about 83,000 compounds, 20% with a hit somewhere; the sample as a whole holds those more often. Active and inactive are the calls of the source. How the source made its calls: active means growth percent below 10; inactive means the rest.
API: response.call in active, inactive

Below are worked cases with known answers.
>>> print(df.to_string())
                                   compound        target  category
0  COC(=O)C[Se]C(=O)Cc1c(C)n(C(=O)c2ccc(Cl)cc2)c2ccc(OC)cc12  HCT-15 colon  inactive
1  CN1CCN(Cc2ccc(NC(=O)c3cncc(C#Cc4cnc5ccc(OCC(C)(C)O)nn45)c3)cc2C(F)(F)F)CC1  HCT-15 colon    active
2  CCCC(=O)NC(c1cccnc1)c1cc(C(C)(C)C)c2cccnc2c1O (stereo unspecified)  HCT-15 colon  inactive
3  CC[C@@H](CO)Nc1ccc2ncc(C#Cc3cncc(C(=O)Nc4ccc(CN5CCN(C)CC5)c(C(F)(F)F)c4)c3)n2n1  HCT-15 colon    active
4  COc1ccc(C2c3sc4c(C)cccc4c3Oc3nc(CC(=O)Nc4ccccc4)[nH]c(=O)c32)cc1 (stereo unspecified)  HCT-15 colon  inactive

Q. What did the test return for O=S(=O)(NCCCNc1nccc(-c2[nH]c(-c3ccccc3)nc2-c2ccc(Cl)c(O)c2)n1)c1ccc(Br)cc1 ?
A. inactive

Q. What did the test return for O=C(NNc1nc2cc(F)ccc2n2cccc12)c1ccncn1 ?
A. inactive

Q. What did the test return for COc1ccc(Cn2cc3c(c2-c2cc(OC)c(OC)c(OC)c2)CCc2c(CN4CCOCC4)noc2-3)cc1 ?
A. inactive

----------
Tested on: K-562 leukemia
PROCEDURE SUMMARY: NCI-60 one-dose screen, 48 h (100 = growth as untreated, 0 = no growth, -100 = all killed)
MEASUREMENT CONDITIONS: 10 µM unless noted
Compounds without any hit were thinned out: in the full panel of roughly 83,000, 20% have a hit.
RESULT TYPE: growth (%)
Could you give me the number in %? Just the number is fine.

Would you please look over these solved cases?
                                   compound  result_type  observed_measurement
0  CN(C)CCN(C)c1ccc2ncc(C#Cc3cncc(C(=O)Nc4ccc(CN5CCN(C)CC5)c(C(F)(F)F)c4)c3)n2n1       growth                  3.58
1  O=S(=O)(NCCNc1nccc(-n2cnc3ccccc32)n1)c1ccc(Br)cc1       growth                  88.4
2  CN1CCN(c2ccc(/C=N/Nc3nc4ccccc4c(=O)n3-c3ccccc3)cc2)CC1       growth                   103
3  O=C(NNc1nc2cc(F)c(F)cc2n2c(CN3CC4CNCC4C3)ccc12)c1ncccn1 (stereo not given)       growth                  9.16
4  C#CCOc1ccc(/C=N\Nc2nc(-c3ccc(C)cc3)cs2)cc1OC       growth                  69.6

Q. Quote K-562 leukemia growth for entry N#Cc1c(-c2cccs2)cc(-c2cnccn2)nc1SCC(=O)c1ccc(F)cc1 .
A. 87.2

Q. Quote K-562 leukemia growth for entry NC(=O)c1c(NC(=O)c2ccc(F)cc2F)sc2c1CCC(=O)C2 .
A. 15.8

Q. Quote K-562 leukemia growth for entry CC(=O)C1=C(C)NC(NN)=NC1c1cccc(Cl)c1 (stereo not given) .
A. 100

Q. Quote K-562 leukemia growth for entry C=CC(=O)N1CC=C(c2cc3c(N[C@H](C)c4ccccc4)ncnc3[nH]2)CC1 .
A. 84.2

Q. Quote K-562 leukemia growth for entry NS(=O)(=O)c1ccc(Nc2nc(Nc3ccccc3)nc3nnc(SCC(=O)NC4CCCCC4)n23)cc1 .
A. 94.1
